- Assay Explanation: in vivo
- Settings: both, C57BL/6JRJ, mouse, iv, 5 mg/kg
Attribute Measured: AUC (ng·h/mL)
The response must be a number in ng·h/mL with no trailing unit.

Input line: Reported AUC for c1ccc(CN2CCCC[C@H]3NCC[C@H]32)cc1 [(R,R)-1a] : what is it?
Output line: 799

###

- Tested On: norepinephrine transporter (NET, SLC6A2) (Homo sapiens, UniProt P23975)
- Construct: purchased Eurofins Cerep SA
- Sequence (P23975 whole entry): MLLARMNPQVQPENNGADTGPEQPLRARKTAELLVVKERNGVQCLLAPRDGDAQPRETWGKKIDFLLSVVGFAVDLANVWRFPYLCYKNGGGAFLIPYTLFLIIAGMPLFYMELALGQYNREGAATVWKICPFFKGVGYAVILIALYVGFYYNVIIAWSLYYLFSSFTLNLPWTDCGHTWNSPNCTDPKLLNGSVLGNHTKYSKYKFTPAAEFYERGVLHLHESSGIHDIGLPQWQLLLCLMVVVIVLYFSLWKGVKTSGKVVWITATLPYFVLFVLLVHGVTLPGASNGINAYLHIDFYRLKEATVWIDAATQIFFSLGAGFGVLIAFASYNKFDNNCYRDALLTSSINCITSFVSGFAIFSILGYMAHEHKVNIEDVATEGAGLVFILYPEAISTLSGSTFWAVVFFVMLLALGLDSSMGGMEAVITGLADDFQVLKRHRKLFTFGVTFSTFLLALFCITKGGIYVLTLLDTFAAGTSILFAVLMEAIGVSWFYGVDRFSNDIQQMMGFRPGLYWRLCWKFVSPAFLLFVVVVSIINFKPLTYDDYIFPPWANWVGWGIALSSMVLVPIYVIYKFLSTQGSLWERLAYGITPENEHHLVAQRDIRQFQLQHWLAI
- Assay Explanation: radioligand displacement assay on NET (Eurofins Cerep SA)
- Format: binding
- Settings: read-out: % Inhibition @ 10 µM on NET
inhibition at 10 µM overview
The response must be a number in % with no trailing unit.

Use these answered entries as a reference point.
c1ccc(CN2CCC[C@H]3NCCCC[C@H]32)cc1 (relative stereo) [27a]	13.9
c1ccc(CN2CCC[C@H]3NCCCC[C@@H]32)cc1 (relative stereo) [27b]	-5.1

Input line: Reported inhibition at 10 µM for c1ccc(CN2CCCC[C@@H]3NCCC[C@H]32)cc1 [40b] : what is it?
Output line: 60

Input line: Reported inhibition at 10 µM for c1ccc(CN2CCCC[C@H]3NCCC[C@H]32)cc1 [40a] : what is it?
Output line: 88.7

Input line: Reported inhibition at 10 µM for C1CC[C@@H]2NCC[C@H]2NC1 (relative stereo) [2b, Decahydropyrrolo[3,2-b]azepine] : what is it?
Output line: 3

Input line: Reported inhibition at 10 µM for c1ccc(CN2CC[C@H]3NCCCC[C@@H]32)cc1 (relative stereo) [17b, 1-Benzyldecahydropyrrolo[3,2-b]azepine] : what is it?
Output line: 10.8

Input line: Reported inhibition at 10 µM for C1CC[C@H]2NCC[C@H]2NC1 (relative stereo) [2a, Decahydropyrrolo[3,2-b]azepine] : what is it?
Output line: 1.7

Input line: Reported inhibition at 10 µM for C1CCC2NCCCCC2NC1 (centres unmarked) [4b, Dodecahydroazepino[3,2-b]azepine] : what is it?
Output line: -7.1

###

- Assay Explanation: in vivo
- Settings: both, C57BL/6JRJ, mouse, po, 5 mg/kg
Attribute Measured: Tmax (min)
The response must be a number in min with no trailing unit.

Input line: Reported Tmax for c1ccc(CN2CCCC[C@H]3NCC[C@H]32)cc1 [(R,R)-1a] : what is it?
Output line: 15

###

- Assay Explanation: in vivo
- Settings: both, C57BL/6JRJ, mouse, po, 5 mg/kg
Attribute Measured: AUC (ng·h/mL)
The response must be a number in ng·h/mL with no trailing unit.

Input line: Reported AUC for c1ccc(CN2CCCC[C@H]3NCC[C@H]32)cc1 [(R,R)-1a] : what is it?
Output line: 36.6

###

inhibition at 10 µM overview
- Tested On: dopamine transporter (DAT, SLC6A3) (Homo sapiens, UniProt Q01959)
- Construct: purchased Eurofins Cerep SA
- Sequence (Q01959 whole entry): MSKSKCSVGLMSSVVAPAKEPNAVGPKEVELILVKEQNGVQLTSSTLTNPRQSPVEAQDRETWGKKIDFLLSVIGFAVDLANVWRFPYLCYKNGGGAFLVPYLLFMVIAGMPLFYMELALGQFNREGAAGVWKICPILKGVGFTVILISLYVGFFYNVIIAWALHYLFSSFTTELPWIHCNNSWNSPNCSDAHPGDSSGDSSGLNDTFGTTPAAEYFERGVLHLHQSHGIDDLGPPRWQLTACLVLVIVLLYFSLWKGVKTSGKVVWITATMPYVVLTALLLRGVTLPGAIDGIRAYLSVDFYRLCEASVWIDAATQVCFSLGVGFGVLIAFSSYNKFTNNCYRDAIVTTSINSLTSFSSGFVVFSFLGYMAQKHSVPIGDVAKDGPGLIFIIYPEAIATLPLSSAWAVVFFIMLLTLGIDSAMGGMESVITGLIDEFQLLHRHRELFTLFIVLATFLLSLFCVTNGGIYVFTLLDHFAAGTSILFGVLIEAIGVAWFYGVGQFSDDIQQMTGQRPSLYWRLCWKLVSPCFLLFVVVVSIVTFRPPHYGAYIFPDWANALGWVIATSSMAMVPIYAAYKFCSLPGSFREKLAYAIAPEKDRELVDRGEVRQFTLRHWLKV
- Assay Explanation: radioligand displacement assay on DAT (Eurofins Cerep SA)
- Type: binding
- Settings: read-out: % Inhibition @ 10 µM on DAT
The response must be a number in % with no trailing unit.

Input line: Reported inhibition at 10 µM for c1ccc(CN2CC[C@H]3NCCCC[C@@H]32)cc1 (relative stereo) [17b, 1-Benzyldecahydropyrrolo[3,2-b]azepine] : what is it?
Output line: 89

Input line: Reported inhibition at 10 µM for C1CC[C@@H]2NCC[C@H]2NC1 (relative stereo) [2b, Decahydropyrrolo[3,2-b]azepine] : what is it?
Output line: 13.6

Input line: Reported inhibition at 10 µM for c1ccc(CN2CC[C@H]3NCCCC[C@H]32)cc1 (relative stereo) [17a, 1-Benzyldecahydropyrrolo[3,2-b]azepine] : what is it?
Output line: 78.3

Input line: Reported inhibition at 10 µM for c1ccc(CN2CCC[C@H]3NCCCC[C@@H]32)cc1 (relative stereo) [27b] : what is it?
Output line: 19.4

###

inhibition at 0.01 µM overview
- Tested On: norepinephrine transporter (NET, SLC6A2) (Homo sapiens)
- Construct: purchased Eurofins Cerep SA
- Assay Explanation: radioligand displacement assay on NET (Eurofins Cerep SA)
- Format: binding
- Settings: read-out: % Inhibition @ 10 nM on NET
The response must be a number in % with no trailing unit.

Brc1cccc(CN2CCCC[C@H]3NCC[C@H]32)c1 [(R,R)-61]	56.7
Clc1ccc(CN2CCCC[C@H]3NCC[C@H]32)cc1 [(R,R)-58]	-15.2

Input line: # value lookup — system norepinephrine transporter (NET, SLC6A2) (Homo sapiens), readout inhibition at 0.01 µM, item Clc1ccccc1CN1CCCC[C@H]2NCC[C@H]21 [(R,R)-60]
Output line: 24

Input line: # value lookup — system norepinephrine transporter (NET, SLC6A2) (Homo sapiens), readout inhibition at 0.01 µM, item Clc1cccc(CN2CCCC[C@H]3NCC[C@H]32)c1 [(R,R)-59]
Output line: 55.9

###

inhibition at 10 µM overview
- Tested On: dopamine transporter (DAT, SLC6A3) (Homo sapiens, UniProt Q01959)
- Construct: purchased Eurofins Cerep SA
- Assay Explanation: radioligand displacement assay on DAT (Eurofins Cerep SA)
- Type: binding
- Settings: read-out: % Inhibition @ 10 µM on DAT
The response must be a number in % with no trailing unit.

Use these answered entries as a reference point.
c1ccc(CN2CCCC[C@@H]3NCC[C@@H]32)cc1 [(S,S)-1a]	94.4
c1ccc(CN2CCCC[C@H]3NCCC[C@H]32)cc1 [40a]	94.4
c1ccc(CN2CCCC[C@@H]3NCCCC[C@H]32)cc1 [44b, 6-Benzyldodecahydroazepino[3,2-b]azepine]	74.9
C1CCC2NCCCCC2NC1 (centres unmarked) [4b, Dodecahydroazepino[3,2-b]azepine]	-0.5

Now let's try a different one.
Input line: Reported inhibition at 10 µM for c1ccc(CN2CCCC[C@H]3NCC[C@H]32)cc1 [(R,R)-1a] : what is it?
Output line: 97.2

###

- Tested On: serotonine (5-HT) transporter (SERT, SLC6A4) (Homo sapiens, UniProt P31645)
- Construct: purchased Eurofins Cerep SA
- Sequence (P31645 whole entry): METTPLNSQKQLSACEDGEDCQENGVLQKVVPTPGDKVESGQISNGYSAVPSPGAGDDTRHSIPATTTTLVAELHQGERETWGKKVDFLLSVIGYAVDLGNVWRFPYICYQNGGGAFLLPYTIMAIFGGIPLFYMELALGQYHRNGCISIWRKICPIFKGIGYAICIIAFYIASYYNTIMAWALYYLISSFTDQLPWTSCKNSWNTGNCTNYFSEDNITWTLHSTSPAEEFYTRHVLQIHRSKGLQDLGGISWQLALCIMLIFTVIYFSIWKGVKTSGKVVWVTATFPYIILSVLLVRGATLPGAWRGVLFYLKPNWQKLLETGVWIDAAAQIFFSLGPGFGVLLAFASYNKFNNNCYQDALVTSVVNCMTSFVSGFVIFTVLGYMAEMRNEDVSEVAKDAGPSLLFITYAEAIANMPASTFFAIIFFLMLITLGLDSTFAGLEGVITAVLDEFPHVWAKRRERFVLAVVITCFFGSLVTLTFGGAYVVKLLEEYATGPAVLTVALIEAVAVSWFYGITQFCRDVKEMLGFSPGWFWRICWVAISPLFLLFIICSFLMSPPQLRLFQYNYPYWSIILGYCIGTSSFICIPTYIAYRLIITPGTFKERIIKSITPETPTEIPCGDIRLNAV
- Assay Explanation: radioligand displacement assay on SERT (Eurofins Cerep SA)
- Assay type: binding
Attribute Measured: IC50 (nM)
The response must be a number in nM with no trailing unit.

Input line: # value lookup — system serotonine (5-HT) transporter (SERT, SLC6A4) (Homo sapiens, UniProt P31645), readout IC50, item c1ccc(CN2CCCC[C@H]3NCC[C@H]32)cc1 [(R,R)-1a]
Output line: 250

###

- Tested On: dopamine transporter (DAT, SLC6A3) (Homo sapiens)
- Construct: purchased Eurofins Cerep SA
- Assay Explanation: radioligand displacement assay on DAT (Eurofins Cerep SA)
- Assay type: binding
- Settings: read-out: % Inhibition @ 100 nM on DAT
Attribute Measured: inhibition at 0.1 µM (%)
The response must be a number in % with no trailing unit.

Use these answered entries as a reference point.
Clc1ccccc1CN1CCCC[C@H]2NCC[C@H]21 [(R,R)-60]	37.5
c1ccc(CN2CCCC[C@H]3NCC[C@H]32)cc1 [(R,R)-1a]	29.8
Brc1cccc(CN2CCCC[C@H]3NCC[C@H]32)c1 [(R,R)-61]	58
Clc1ccc(CN2CCCC[C@H]3NCC[C@H]32)cc1 [(R,R)-58]	12

Input line: Reported inhibition at 0.1 µM for Clc1cccc(CN2CCCC[C@H]3NCC[C@H]32)c1 [(R,R)-59] : what is it?
Output line: 74.9

###

- Tested On: serotonine (5-HT) transporter (SERT, SLC6A4) (Homo sapiens, UniProt P31645)
- Construct: purchased Eurofins Cerep SA
- Assay Explanation: radioligand displacement assay on SERT (Eurofins Cerep SA)
- Type: binding
- Settings: read-out: % Inhibition @ 100 nM on SERT
Attribute Measured: inhibition at 0.1 µM (%)
The response must be a number in % with no trailing unit.

Use these answered entries as a reference point.
Clc1ccccc1CN1CCCC[C@H]2NCC[C@H]21 [(R,R)-60]	69.1
c1ccc(CN2CCCC[C@H]3NCC[C@H]32)cc1 [(R,R)-1a]	26.3
Clc1cccc(CN2CCCC[C@H]3NCC[C@H]32)c1 [(R,R)-59]	98
Brc1cccc(CN2CCCC[C@H]3NCC[C@H]32)c1 [(R,R)-61]	96.9

Now let's try a different one.
Input line: Reported inhibition at 0.1 µM for Clc1ccc(CN2CCCC[C@H]3NCC[C@H]32)cc1 [(R,R)-58] : what is it?
Output line: 78.2

###

- Tested On: dopamine transporter (DAT, SLC6A3) (Homo sapiens, UniProt Q01959)
- Construct: purchased Eurofins Cerep SA
- Assay Explanation: radioligand displacement assay on DAT (Eurofins Cerep SA)
- Type: binding
- Settings: read-out: % Inhibition @ 10 µM on DAT
Attribute Measured: inhibition at 10 µM
A complete answer gives the number followed by the unit.

Input line: # value lookup — system dopamine transporter (DAT, SLC6A3) (Homo sapiens, UniProt Q01959), readout inhibition at 10 µM, item c1ccc(CN2CCC[C@H]3NCCCC[C@H]32)cc1 (relative stereo) [27a]
Output line: 85.5%
